Data credit: the supplement of paper PMC7125110

B1: glmS ribozyme (parent)
chain: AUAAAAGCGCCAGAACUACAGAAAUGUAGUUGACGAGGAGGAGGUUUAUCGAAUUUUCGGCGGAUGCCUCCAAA

# Variants of: B1
# procedure.text: self-cleavage kobs at 640 uM GlcN6P; higher = faster cleavage; RNA array
# condition.notes: with glucosamine-6-phosphate
Variants at the floor of the assay were thinned out.
measured.metric: self-cleavage kobs at 640 uM GlcN6P (s⁻¹)
Numbers only, in s⁻¹.

residue.sequence | self-cleavage kobs at 640 uM GlcN6P, s⁻¹
AUAAAAGCGCCAGAUCUACAGAAAUGUAGUUGACGAGGAGGAGGCUUAUCGAAUUUUCGGCGGAUGCCUCCAAA [A15U U45C] | 6.91e-05
AUAAAAGCGCCAGAACUACAGAAAUGUAGUUGACGAGGAGGAGGUUUAUCGAAUUAUCGGCGGAUCCCUCCAAA [U56A G66C] | 0.000107
AUAAAAGCGCCAGAACUACAGAAAUGUAAAUGACGAGGAGGAGGUUUAUCGAAUUUUCGGCGGAUGCCUCCAAA [G29A U30A] | 0.000149
AUAAAAGCGCCAGAACUACAGAAAUGUAGCUGACGAGGAGGAGGUUUAUAGAAUUUUCGGCGGAAGCCGCCAAA [U30C C50A U65A U69G] | 0.000207

As a next step, examine the variant that follows.
Please give the documented self-cleavage kobs at 640 uM GlcN6P of AUAAAAGCGCCAGAACUACAGAAAUGUAGUUGACGAGGAGGAGGUUUAUCGAAUGAUCGGCGGAUGCCUCGAAA [U55G U56A C71G]
8.05e-05
